Test: DSC of DSPG bilayers with inhibitor
Format: physicochemical
Details: heating
Examples of compounds with documented Decrease of Tm compared to DSPG alone follow.

[[record]]
compound = "CC(C)=CCCC(C)=CCNCCNC(C)(C)C12CC3CC(CC(C3)C1)C2"
recorded_measurement = "3–4 °C"

[[record]]
compound = "CC(C)=CCC/C(C)=C/CNCCNC1C2CC3CC(C2)CC1C3 (centres unmarked) [Compound 8a, reference compound]"
recorded_measurement = "3–4 °C"

[[record]]
compound = "CC(C)=CCCC(C)=CCNCCNC1(c2ccccc2)C2CC3CC(C2)CC1C3 (centres unmarked)"
recorded_measurement = "~ 5 °C"

[[record]]
compound = "CCCCC1(NCCNCC=C(C)CCC=C(C)C)C2CC3CC(C2)CC1C3 (centres unmarked)"
recorded_measurement = "~ 5 °C"

[[record]]
compound = "CC(C)=CCCC(C)=CCNCCNC1(C)C2CC3CC(C2)CC1C3 (centres unmarked)"
recorded_measurement = "3–4 °C"

[[record]]
compound = "CCCCCCC1(NCCNCC=C(C)CCC=C(C)C)C2CC3CC(C2)CC1C3 (centres unmarked)"
recorded_measurement = "~ 5 °C"

[[record]]
compound = "CCCC1(NCCNCC=C(C)CCC=C(C)C)C2CC3CC(C2)CC1C3 (centres unmarked)"
recorded_measurement = "3–4 °C"


[in] Quick check: Decrease of Tm compared to DSPG alone of CC(C)=CCCC(C)=CCNCCNC1(Cc2ccccc2)C2CC3CC(C2)CC1C3 (centres unmarked) ?
[out] ~ 5 °C

###

Test system: L. mexicana promastigotes
Assay: L. mexicana promastigote growth inhibition
Assay type: cell-based, Leishmania mexicana
Conditions: Leishmania mexicana, read-out: L. mexicana IC50, promastigotes
reported_endpoint: IC50 (nM)
Enter your answer as a number in nM; do not include the unit.

[[record]]
molecule = "CCCC1(NCC(=O)NCC=C(C)CCC=C(C)C)C2CC3CC(C2)CC1C3 (centres unmarked) [Compound 14d]"
recorded_measurement = 730


[in] Quick check: IC50 of `CC(C)=CCCC(C)=CCNCC(=O)NC(C)(C)C12CC3CC(CC(C3)C1)C2` ?
[out] 5200

[in] Next: `CC(C)=CCCC(C)=CCNC(=O)CNC(C)(C)C12CC3CC(CC(C3)C1)C2`
[out] 5000

[in] Next: CC(C)=CCCC(C)=CCNC(=O)CNC1(C)C2CC3CC(C2)CC1C3 (centres unmarked) [Compound 14b]
[out] 2400

[in] Next: CC(C)=CCC/C(C)=C/CNCCNC1C2CC3CC(C2)CC1C3 (centres unmarked) [Compound 8a, reference compound]
[out] 500

###

Examples of compounds with documented Kd follow.
Biological target: M. tuberculosis MmpL3 (MtMmpL3) (Mycobacterium tuberculosis, UniProt P9WJV5)
Sequence (P9WJV5 whole entry): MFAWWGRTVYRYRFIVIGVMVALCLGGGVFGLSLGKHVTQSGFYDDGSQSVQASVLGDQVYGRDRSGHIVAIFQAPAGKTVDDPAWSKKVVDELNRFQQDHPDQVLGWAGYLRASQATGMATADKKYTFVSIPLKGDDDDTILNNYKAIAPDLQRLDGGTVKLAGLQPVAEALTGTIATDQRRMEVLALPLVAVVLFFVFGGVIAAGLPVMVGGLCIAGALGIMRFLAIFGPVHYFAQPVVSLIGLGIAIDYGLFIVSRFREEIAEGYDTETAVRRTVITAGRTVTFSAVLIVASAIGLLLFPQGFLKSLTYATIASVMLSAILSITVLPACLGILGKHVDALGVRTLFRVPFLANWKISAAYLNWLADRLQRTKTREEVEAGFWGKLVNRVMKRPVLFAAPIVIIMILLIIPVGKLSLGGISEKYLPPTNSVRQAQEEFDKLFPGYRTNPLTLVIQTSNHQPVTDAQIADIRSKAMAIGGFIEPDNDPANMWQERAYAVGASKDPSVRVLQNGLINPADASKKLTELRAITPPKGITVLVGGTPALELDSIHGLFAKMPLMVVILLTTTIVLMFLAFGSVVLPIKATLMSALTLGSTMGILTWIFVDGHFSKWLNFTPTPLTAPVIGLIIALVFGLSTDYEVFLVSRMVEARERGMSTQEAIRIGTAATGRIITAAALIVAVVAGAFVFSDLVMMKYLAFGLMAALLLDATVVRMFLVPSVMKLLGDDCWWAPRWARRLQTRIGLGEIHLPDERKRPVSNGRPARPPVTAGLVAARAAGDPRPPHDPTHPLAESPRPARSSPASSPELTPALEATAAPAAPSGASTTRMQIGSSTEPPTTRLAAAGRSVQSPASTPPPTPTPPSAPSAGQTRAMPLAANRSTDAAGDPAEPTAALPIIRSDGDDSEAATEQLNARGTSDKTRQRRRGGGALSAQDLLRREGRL
Test: Surface plasmon resonance binding to MmpL3
Details: KD, 1:1 model, 1:1 binding model; from ratio of rate constants
Enter your answer as a number in µM; do not include the unit.

[[record]]
compound = "CCC1(NCCNCC=C(C)CCC=C(C)C)C2CC3CC(C2)CC1C3 (stereo not drawn) [Compound 8c]"
reported_endpoint = "Kd"
recorded_measurement = 180

[[record]]
compound = "CC(C)=CCCC(C)=CCNC(=O)CNC1(C)C2CC3CC(C2)CC1C3 (stereo not drawn) [Compound 14b]"
reported_endpoint = "Kd"
recorded_measurement = 426


[in] Quick check: Kd of CCCC1(NCC(=O)NCC=C(C)CCC=C(C)C)C2CC3CC(C2)CC1C3 (stereo not drawn) [Compound 14d] ?
[out] 252

###

Examples of molecules with documented CC50 follow.
System: U2OS host cells
Assay: U2OS host cell growth inhibition
Conditions: read-out: T. cruzi CC50 (U20S)
Enter your answer as a number in nM; do not include the unit.

Please review the following examples before continuing.
[[record]]
molecule = "CCCCC1(NCCNCC=C(C)CCC=C(C)C)C2CC3CC(C2)CC1C3 (stereo not shown) [Compound 8e]"
unit_label = "nM"
recorded_measurement = 1700

[[record]]
molecule = "CCCC1(NCCNCC=C(C)CCC=C(C)C)C2CC3CC(C2)CC1C3 (stereo not shown) [Compound 8d]"
unit_label = "nM"
recorded_measurement = 1600

[[record]]
molecule = "CCCCCCC1(NCCNCC=C(C)CCC=C(C)C)C2CC3CC(C2)CC1C3 (stereo not shown) [Compound 8f]"
unit_label = "nM"
recorded_measurement = 4100


[in] Quick check: CC50 of CC(C)=CCCC(C)=CCNCCNC1(Cc2ccccc2)C2CC3CC(C2)CC1C3 (stereo not shown) [Compound 8g] ?
[out] 2000

[in] Next: CC(C)=CCCC(C)=CCNCCNC1(c2ccccc2)C2CC3CC(C2)CC1C3 (stereo not shown) [Compound 8h]
[out] 3500

[in] Next: CC(C)=CCCC(C)=CCNCCNC1(C)C2CC3CC(C2)CC1C3 (stereo not shown) [Compound 8b]
[out] 2800

[in] Next: CC(C)=CCCC(C)=CCNCCNC(C)(C)C12CC3CC(CC(C3)C1)C2 [Compound 12]
[out] 1400

###

Target: M. tuberculosis MmpL3 (MtMmpL3) (Mycobacterium tuberculosis, UniProt P9WJV5)
Assay: Surface plasmon resonance binding to MmpL3
Details: read-out: KD, 2-state; two-state model; from rate constants
I'd appreciate it if you marked entries Satisfied when Kd is lower than 100 µM and Not satisfied when it is not.

Consider the following illustrative entries.
[[record]]
compound = "CC(C)=CCCC(C)=CCNCCNC1(Cc2ccccc2)C2CC3CC(C2)CC1C3 (centres unmarked) [Compound 8g]"
category_label = "Satisfied"

[[record]]
compound = "CC(C)=CCCC(C)=CCNCCNC(C)(C)C12CC3CC(CC(C3)C1)C2 [Compound 12]"
category_label = "Not satisfied"

[[record]]
compound = "CCCCCCC1(NCCNCC=C(C)CCC=C(C)C)C2CC3CC(C2)CC1C3 (centres unmarked) [Compound 8f]"
category_label = "Satisfied"


Now look at this entry.
[in] Does CC(C)=CCCC(C)=CCNCCNC1(c2ncc(-c3ccccc3)s2)C2CC3CC(C2)CC1C3 (centres unmarked) [Compound 8i] have Kd strictly under 100 µM?
[out] Satisfied

###

Experiment: DSC of DMPC bilayers with inhibitor
Format: physicochemical
Conditions: 10 wt % inhibitor, PBS pH 7.4, heating
MET means recorded ΔH is 6 kcal/mol or above; NOT MET means it is below 6 kcal/mol.

[[record]]
compound = "CCCC1(NCCNCC=C(C)CCC=C(C)C)C2CC3CC(C2)CC1C3 (stereo not drawn)"
category_label = "NOT MET"

[[record]]
compound = "CC(C)=CCCC(C)=CCNCCNC1(c2ccccc2)C2CC3CC(C2)CC1C3 (stereo not drawn)"
category_label = "MET"

[[record]]
compound = "CC(C)=CCCC(C)=CCNCCNC1(Cc2ccccc2)C2CC3CC(C2)CC1C3 (stereo not drawn)"
category_label = "NOT MET"


[in] Assess whether reported ΔH for CC(C)=CCC/C(C)=C/CNCCNC1C2CC3CC(C2)CC1C3 (stereo not drawn) [Compound 8a, reference compound] sits at 6 kcal/mol or higher.
[out] NOT MET

[in] Next: `CC(C)=CCCC(C)=CCNCCNC(C)(C)C12CC3CC(CC(C3)C1)C2`
[out] NOT MET

[in] Next: CCC1(NCCNCC=C(C)CCC=C(C)C)C2CC3CC(C2)CC1C3 (stereo not drawn)
[out] NOT MET

###

Biological target: M. tuberculosis MmpL3 (MtMmpL3) (Mycobacterium tuberculosis)
Assay: Surface plasmon resonance binding to MmpL3
Conditions: two-state model
reported_endpoint: ka1 (M⁻¹ s⁻¹)
Enter your answer as a number in M⁻¹ s⁻¹; do not include the unit.

Please review the following examples before continuing.
[[record]]
compound = "CC(C)=CCCC(C)=CCNC(=O)CNC1(C)C2CC3CC(C2)CC1C3 (stereo not drawn) [Compound 14b]"
unit_label = "M⁻¹ s⁻¹"
recorded_measurement = 1917

[[record]]
compound = "CC(C)=CCCC(C)=CCNCCNC1(c2ncc(-c3ccccc3)s2)C2CC3CC(C2)CC1C3 (stereo not drawn)"
unit_label = "M⁻¹ s⁻¹"
recorded_measurement = 3946


We next turn to a different compound, shown below.
[in] Query ka1 on M. tuberculosis MmpL3 (MtMmpL3) (Mycobacterium tuberculosis) for CC(C)=CCCC(C)=CCNCCNC1(Cc2ccccc2)C2CC3CC(C2)CC1C3 (stereo not drawn)
[out] 6462

###

Test: DSC of DSPG bilayers with inhibitor
Type: physicochemical
Details: 10 wt % inhibitor, PBS pH 7.4, heating
reported_endpoint: Tm (main transition) (°C)
Enter your answer as a number in °C; do not include the unit.

Please review the following examples before continuing.
[[record]]
molecule = "CCCC1(NCCNCC=C(C)CCC=C(C)C)C2CC3CC(C2)CC1C3 (stereo not drawn) [Compound 8d]"
unit_label = "°C"
recorded_measurement = 50.0

[[record]]
molecule = "CC(C)=CCCC(C)=CCNCCNC1(C)C2CC3CC(C2)CC1C3 (stereo not drawn) [Compound 8b]"
unit_label = "°C"
recorded_measurement = 50.5

[[record]]
molecule = "CC(C)=CCCC(C)=CCNCCNC1(Cc2ccccc2)C2CC3CC(C2)CC1C3 (stereo not drawn) [Compound 8g]"
unit_label = "°C"
recorded_measurement = 48.0


[in] Quick check: Tm (main transition) of CCC1(NCCNCC=C(C)CCC=C(C)C)C2CC3CC(C2)CC1C3 (stereo not drawn) [Compound 8c] ?
[out] 51.9

[in] Next: CC(C)=CCCC(C)=CCNCCNC(C)(C)C12CC3CC(CC(C3)C1)C2 [Compound 12]
[out] 49.8

Ref: paper PMC10615177
